Cited source: paper PMC7865627

- Tested on: PSMA-negative PC3flu cells
- PROCEDURE_TEXT: In vitro cytotoxicity assay (CCK-8), PC3flu
- Format: cell-based, human
- CONDITION_CONTEXT: 72 h incubation, CCK-8; mean ± SD
Where a SMILES comes first, the peptide text is derived from it. [ ]: non-standard residue; d: D form. The star is where a group is joined. Dolaproine = CO[C@@H]([C@@H]1CCCN1)[C@@H](C)C(=O)O; Dil = CC[C@H](C)[C@H](NC)[C@@H](CC(=O)O)OC; X2 = C[C@@H](N*)[C@@H](O)c1ccccc1; NMeV = CN[C@H](C(=O)O)C(C)C
EXPERIMENTAL_READOUT: EC50
Answer format: value, then unit.

Problem: Find the recorded EC50 belonging to CC[C@H](C)[C@@H]([C@@H](CC(=O)N1CCC[C@H]1[C@H](OC)[C@@H](C)C(=O)N[C@H](C)[C@@H](O)c1ccccc1)OC)N(C)C(=O)[C@@H](NC(=O)[C@@H](NC)C(C)C)C(C)C [MMAE, monomethyl auristatin E, reference compound] (H-[NMeV]V[Dil][Dolaproine]-X2) and report it.
Solution: 0.21 nM
